Biological target: human full-length CCK-2 receptor (Homo sapiens, UniProt P32239)
Construct: stably transfected to over-express the human full-length CCK-2 receptor (A431-CCK-2R); expressed in transfected cells
Sequence (P32239 whole entry): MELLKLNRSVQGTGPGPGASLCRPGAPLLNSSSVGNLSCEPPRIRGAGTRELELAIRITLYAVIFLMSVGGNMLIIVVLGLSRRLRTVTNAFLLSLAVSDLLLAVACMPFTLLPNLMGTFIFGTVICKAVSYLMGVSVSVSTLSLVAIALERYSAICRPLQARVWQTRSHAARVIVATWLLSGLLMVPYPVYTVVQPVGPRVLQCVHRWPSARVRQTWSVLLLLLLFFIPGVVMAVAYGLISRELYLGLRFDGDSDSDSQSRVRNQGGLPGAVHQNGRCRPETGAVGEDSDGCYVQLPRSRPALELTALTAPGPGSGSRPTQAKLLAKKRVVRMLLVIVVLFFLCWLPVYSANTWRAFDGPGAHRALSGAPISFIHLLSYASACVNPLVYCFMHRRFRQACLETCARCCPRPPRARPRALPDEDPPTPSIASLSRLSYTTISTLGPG
Assay: Competitive ligand binding against [^177Lu]Lu-DOTA-CP04 in A431-CCK-2R cells
Conditions: modified peptides based on Peptide C (Table 4); read-out: IC50
Square brackets hold non-standard residues; d marks the D form. Peptide text beside a SMILES is read from it. Phe(4-CF3) = N[C@@H](Cc1ccc(C(F)(F)F)cc1)C(=O)O; NMeNle = CCCC[C@H](NC)C(=O)O; Sar = CNCC(=O)O
RESULT_TYPE: IC50
Write the numeric value and append its unit.

// lookup IC50 for CCCC[C@@H](C(=O)N[C@@H](CC(=O)O)C(=O)N[C@@H](Cc1ccc(C(F)(F)F)cc1)C(N)=O)N(C)C(=O)[C@H](Cc1c[nH]c2ccccc12)NC(=O)CN(C)C(=O)[C@H](Cc1ccc(O)cc1)NC(=O)[C@H](C)NC(=O)[C@@H](CCC(=O)O)NC(=O)[C@@H](CCC(=O)O)NC(=O)[C@@H](CCC(=O)O)NC(=O)[C@@H](C)NC(=O)[C@@H](CCC(=O)O)NC(=O)[C@H](N)CCC(=O)O [P] (H-[dE][dE][dA][dE][dE][dE]AY[Sar]W[NMeNle]D[Phe(4-CF3)]-NH2; N-terminus assumed) 1.14 nM
